The measured values listed here are drawn from patent US20260226527A1.

Listing: inhibition at 1 µM of selected molecules
study-target: mature Arabidopsis BIO3-BIO1 (SEQ ID NO: 21) (Arabidopsis thaliana)
Construct: 6xHis (N); thrombin cleavage site (N); made in house; host or cells: E. coli BL21 (DE3) bioA
Sequence (B0F481 with tags, fused parts or gaps): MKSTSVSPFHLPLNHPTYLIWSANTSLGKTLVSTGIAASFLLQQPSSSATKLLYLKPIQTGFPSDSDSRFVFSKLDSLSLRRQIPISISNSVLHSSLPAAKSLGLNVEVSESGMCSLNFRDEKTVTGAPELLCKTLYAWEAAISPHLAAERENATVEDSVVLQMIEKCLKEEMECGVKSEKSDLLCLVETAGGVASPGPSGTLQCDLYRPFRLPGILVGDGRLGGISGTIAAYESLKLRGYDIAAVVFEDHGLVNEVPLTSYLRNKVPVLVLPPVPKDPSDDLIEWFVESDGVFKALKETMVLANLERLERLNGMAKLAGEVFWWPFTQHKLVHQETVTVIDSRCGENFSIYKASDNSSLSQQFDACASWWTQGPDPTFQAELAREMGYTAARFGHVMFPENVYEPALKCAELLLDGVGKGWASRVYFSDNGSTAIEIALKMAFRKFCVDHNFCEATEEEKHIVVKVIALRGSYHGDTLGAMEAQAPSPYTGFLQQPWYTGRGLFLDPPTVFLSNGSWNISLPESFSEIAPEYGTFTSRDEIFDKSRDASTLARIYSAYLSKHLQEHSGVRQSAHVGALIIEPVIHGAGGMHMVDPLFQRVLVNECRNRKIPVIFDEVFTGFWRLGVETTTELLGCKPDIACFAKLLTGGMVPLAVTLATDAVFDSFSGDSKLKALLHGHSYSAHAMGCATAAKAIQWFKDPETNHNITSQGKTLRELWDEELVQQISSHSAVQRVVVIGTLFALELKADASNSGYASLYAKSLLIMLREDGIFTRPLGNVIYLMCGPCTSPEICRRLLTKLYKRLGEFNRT
assay-summary: DAPA-AT assay with spermidine as amine donor, fluorescent detection of DAPA:o-phthalaldehyde
Assay type: biochemical
reported-conditions: inhibitor concentration 1 μM; 10 μM spermidine, 1 μM KAPA, 60 minutes at 20° C.
Quick note: give the figure in %, leave out the unit.

Solved entries (count: 4):
## Task Request the reported inhibition at 1 µM associated with CCOC(=O)c1nn(-c2ccc3c(c2)OC(F)(F)C(F)(F)O3)c2cccc(C(C)=O)c2c1=O
## Result 59

## Task Cool, now CCn1c(Cn2ccc(C(F)(F)F)n2)cc(=O)c(C(=O)O)c1-c1ccc(Cl)c(Cl)c1
## Result 44

## Task Cool, now CCn1c(C)c(-c2cc(OC(F)(F)F)ccc2Cl)c(=O)c(C(=O)O)c1-c1ccc(Cl)c(Cl)c1
## Result 84

## Task Cool, now CCn1c(-c2ccc(Cl)c(Cl)c2)c(C(=O)O)c(=O)c2cc(F)ccc21
## Result 58

Here is the next item to consider.
## Task Request the reported inhibition at 1 µM associated with CCn1c(C)c(-c2ccc(F)cc2F)c(=O)c(C(=O)O)c1-c1ccc(Cl)c(Cl)c1
## Result 64
